experiment: Solubility of compound in water; assay type: physicochemical; conditions: buffer
reported property: solubility

item smiles: CCn1cc(C(=O)NN)c(=O)c2cc([N+](=O)[O-])c3cccnc3c21
meas value: Insoluble

item smiles: CCOC(=O)c1cn(CC)c2c(ccc3cccnc32)c1=O
meas value: Insoluble

item smiles: CCOC(=O)c1c[nH]c2c(ccc3c([N+](=O)[O-])cc[n+]([O-])c32)c1=O
meas value: Insoluble

###

tested on: Mycobacterium tuberculosis; test: Antitubercular activity against Mycobacterium tuberculosis H37Rv infected in human macrophages assessed as intracellular bacterial load at 4 times MIC measured after 6 days (reference value: 5.57 to 6.43 logCFU/ml); format: functional, Macrophage; settings: time 6 day
reported property: Activity
Could you write the number and then its unit?

[Q] // fetch Activity; item: `Cn1cc(C(=O)O)c(=O)c2cc([N+](=O)[O-])c3cccnc3c21` ; system: Mycobacterium tuberculosis
[A] 3.01 log10CFU/ml

[Q] // fetch Activity; item: `CCOC(=O)c1cn(C)c2c(cc([N+](=O)[O-])c3cccnc32)c1=O` ; system: Mycobacterium tuberculosis
[A] 3.06 log10CFU/ml

[Q] // fetch Activity; item: COc1c(N2C[C@@H]3CCCN[C@@H]3C2)c(F)cc2c(=O)c(C(=O)O)cn(C3CC3)c12 [MOXIFLOXACIN] ; system: Mycobacterium tuberculosis
[A] 2.54 log10CFU/ml

[Q] // fetch Activity; item: `CCOC(=O)c1cn(CC)c2c(cc([N+](=O)[O-])c3cccnc32)c1=O` ; system: Mycobacterium tuberculosis
[A] 3 log10CFU/ml

[Q] // fetch Activity; item: `CCn1cc(C(=O)O)c(=O)c2cc([N+](=O)[O-])c3cccnc3c21` ; system: Mycobacterium tuberculosis
[A] 3.24 log10CFU/ml
